- measured-on: human TLR8 (Homo sapiens)
- test-name: HEK Reporter Assay, HEK293 cells expressing human TLR8
- condition-details: HEK293 NFKB reporter cells expressing human TLR8; read-out: HEK293 hTLR8 EC50
Documented EC50 across a set of molecules
Just the number in µM, nothing appended.

Sample answers from the record:
1. CCCN(CCC)C(=O)C1=Cc2ccc(-c3cccc(S(=O)(=O)N4CC(CO)C4)c3)cc2N=C(N)C1 [C-2, reference compound]: 1.59
2. CCCN(CCC)C(=O)C1=Cc2c(cnn2C)N=C(N)C1 [PAZ-1]: 4.15
3. CCCN(CCC)C(=O)C1=Cc2c(cnn2CCCCCNC(=O)OC(C)(C)C)N=C(N)C1 [PAZ-4]: 3.1
4. CCCN(CCCNC(=O)CC(C)(C)C)C(=O)C1=Cc2nn(CCCCCNC(=O)OC(C)(C)C)cc2N=C(N)C1 [PAZ-10]: 3.23

Then this molecule:
input: Record CCCN(CCC)C(=O)C1=Cc2c(cnn2CCCCCN)N=C(N)C1 [PAZ-2] : what is its EC50 with human TLR8 (Homo sapiens)?
output: 2.96

----------
- measured-on: human TLR7 (Homo sapiens, UniProt Q9NYK1)
- Sequence (Q9NYK1 27-1049): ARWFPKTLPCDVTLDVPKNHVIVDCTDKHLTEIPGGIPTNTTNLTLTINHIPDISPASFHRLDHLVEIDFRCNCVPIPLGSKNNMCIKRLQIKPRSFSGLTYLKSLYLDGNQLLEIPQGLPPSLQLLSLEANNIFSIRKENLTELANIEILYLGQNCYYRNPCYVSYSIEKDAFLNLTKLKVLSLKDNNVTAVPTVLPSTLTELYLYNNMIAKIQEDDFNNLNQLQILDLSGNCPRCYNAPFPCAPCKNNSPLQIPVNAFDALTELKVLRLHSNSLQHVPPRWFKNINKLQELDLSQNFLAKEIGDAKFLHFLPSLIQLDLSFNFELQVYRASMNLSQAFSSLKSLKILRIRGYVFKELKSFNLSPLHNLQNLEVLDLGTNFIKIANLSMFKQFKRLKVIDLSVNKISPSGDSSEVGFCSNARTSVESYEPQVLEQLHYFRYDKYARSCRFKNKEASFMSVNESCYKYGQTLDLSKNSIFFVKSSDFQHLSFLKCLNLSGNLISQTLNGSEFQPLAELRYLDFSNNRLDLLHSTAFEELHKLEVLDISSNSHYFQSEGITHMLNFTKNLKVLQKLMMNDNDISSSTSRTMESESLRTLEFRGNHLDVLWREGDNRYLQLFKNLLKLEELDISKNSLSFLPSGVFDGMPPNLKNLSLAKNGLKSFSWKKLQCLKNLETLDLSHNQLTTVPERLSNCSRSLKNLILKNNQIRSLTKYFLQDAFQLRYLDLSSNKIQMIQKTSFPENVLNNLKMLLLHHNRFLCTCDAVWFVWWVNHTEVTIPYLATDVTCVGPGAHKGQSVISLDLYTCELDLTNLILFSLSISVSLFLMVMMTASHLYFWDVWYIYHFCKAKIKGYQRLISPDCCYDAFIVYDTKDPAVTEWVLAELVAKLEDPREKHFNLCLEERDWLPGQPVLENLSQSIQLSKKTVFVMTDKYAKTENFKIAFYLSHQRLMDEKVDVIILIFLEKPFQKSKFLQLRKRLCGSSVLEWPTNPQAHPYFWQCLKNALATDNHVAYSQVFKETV
- test-name: HEK Reporter Assay, HEK293 cells expressing human TLR7
- condition-details: HEK293 NFKB reporter cells expressing human TLR7; read-out: HEK293 hTLR7 EC50
- Protocol: Activity against HEK293 NFKB reporter cells expressing human TLR7 or human TLR8 was measured according to Example 202. Example 202 HEK Reporter Assay HEK293 reporter cells expressing human TLR7 or human TLR8 were purchased from Invivogen and vendor protocols were followed for cellular propagation and experimentation. Briefly, cells were grown to 80-85% confluence at 5% CO2 in DMEM supplemented with 10% FBS, Zeocin, and Blasticidin. […]
pEC50: −log10 of the molar value.
Documented pEC50 across a set of compounds

1) CCCN(CCC)C(=O)C1=Cc2c(cnn2Cc2ccc(CNC(=O)OC(C)(C)C)cc2)N=C(N)C1 [PAZ-13]: 6.06
2) CCCN(CCCNC(=O)CC(C)(C)C)C(=O)C1=Cc2nn(CCCCCNC(=O)OC(C)(C)C)cc2N=C(N)C1 [PAZ-10]: < 5.05
3) CCCN(CCCNC(=O)CC(C)(C)C)C(=O)C1=Cc2c(cnn2CCCCCNC(=O)OC(C)(C)C)N=C(N)C1 [PAZ-8]: 5.56
4) CCCN(CCC)C(=O)C1=Cc2ccc(-c3cccc(S(=O)(=O)N4CC(CO)C4)c3)cc2N=C(N)C1 [C-2, reference compound]: < 5.05
5) CCCN(CCC)C(=O)C1=Cc2c(cnn2CCCCCN)N=C(N)C1 [PAZ-2]: < 5.05

input: Record request: pEC50 value, item CCCN(CCCNC(=O)OC1CCC1)C(=O)C1=Cc2c(cnn2CCCCCN)N=C(N)C1 [PAZ-15]
output: < 5.05

input: And for CCCN(CCCNC(=O)CC(C)(C)C)C(=O)C1=Cc2nn(CCCCCN)cc2N=C(N)C1 [PAZ-9] ?
output: < 5.05

----------
- measured-on: human TLR8 (Homo sapiens, UniProt Q9NR97)
- Sequence (Q9NR97 27-1041): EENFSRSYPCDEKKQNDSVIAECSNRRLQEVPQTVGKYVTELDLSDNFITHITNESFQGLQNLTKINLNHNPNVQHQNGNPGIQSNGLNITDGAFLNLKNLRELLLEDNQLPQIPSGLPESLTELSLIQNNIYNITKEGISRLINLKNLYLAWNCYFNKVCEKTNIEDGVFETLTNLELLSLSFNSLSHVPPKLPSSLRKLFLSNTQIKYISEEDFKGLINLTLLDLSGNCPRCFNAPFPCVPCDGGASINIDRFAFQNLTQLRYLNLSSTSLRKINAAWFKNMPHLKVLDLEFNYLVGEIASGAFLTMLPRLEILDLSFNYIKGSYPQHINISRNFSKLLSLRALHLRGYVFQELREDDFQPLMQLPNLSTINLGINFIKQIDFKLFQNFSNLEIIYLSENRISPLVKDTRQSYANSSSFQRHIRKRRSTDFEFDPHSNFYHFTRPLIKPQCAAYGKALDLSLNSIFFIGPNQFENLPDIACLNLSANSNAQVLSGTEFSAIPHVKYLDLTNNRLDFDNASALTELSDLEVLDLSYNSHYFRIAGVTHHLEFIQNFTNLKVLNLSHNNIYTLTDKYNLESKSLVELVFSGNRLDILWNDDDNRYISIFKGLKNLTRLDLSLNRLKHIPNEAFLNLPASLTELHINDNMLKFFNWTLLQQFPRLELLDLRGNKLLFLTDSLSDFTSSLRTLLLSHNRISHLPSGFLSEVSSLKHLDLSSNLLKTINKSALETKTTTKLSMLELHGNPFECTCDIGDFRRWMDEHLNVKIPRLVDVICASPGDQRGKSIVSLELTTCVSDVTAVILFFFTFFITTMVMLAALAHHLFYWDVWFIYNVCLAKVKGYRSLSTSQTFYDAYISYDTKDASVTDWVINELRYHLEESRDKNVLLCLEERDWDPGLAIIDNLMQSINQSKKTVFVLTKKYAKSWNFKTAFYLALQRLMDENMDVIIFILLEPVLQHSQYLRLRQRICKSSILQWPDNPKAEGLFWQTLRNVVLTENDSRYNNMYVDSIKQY
- test-name: HEK Reporter Assay, HEK293 cells expressing human TLR8
- condition-details: HEK293 NFKB reporter cells expressing human TLR8; read-out: HEK293 hTLR8 EC50
measured-parameter: pEC50
// pEC50 here means minus log10 of the molar concentration (mol/L)

1. CCCN(OCC)C(=O)C1=Cc2c(cnn2CCCCCNC(=O)OC(C)(C)C)N=C(N)C1: 5.83

input: Record request: pEC50 value, item CCCN(CCC)C(=O)C1=Cc2nn(C)cc2N=C(N)C1
output: 5.39

----------
Documented pEC50 across a set of molecules
- measured-on: human TLR8 (Homo sapiens, UniProt Q9NR97)
- test-name: HEK Reporter Assay, HEK293 cells expressing human TLR8
- condition-details: HEK293 NFKB reporter cells expressing human TLR8; read-out: HEK293 hTLR8 EC50
// pEC50 here means minus log10 of the molar concentration (mol/L)

1. CCCN(CCC)C(=O)C1=Cc2c(cnn2Cc2ccc(CNC(=O)OC(C)(C)C)cc2)N=C(N)C1: 5.42

input: Record CCCN(OCC)C(=O)C1=Cc2c(cnn2CCCCCN)N=C(N)C1 : what is its pEC50 with human TLR8 (Homo sapiens, UniProt Q9NR97)?
output: 6.54

----------
Documented pEC50 across a set of molecules
- measured-on: human TLR7 (Homo sapiens)
- test-name: HEK Reporter Assay, HEK293 cells expressing human TLR7
- condition-details: HEK293 NFKB reporter cells expressing human TLR7; read-out: HEK293 hTLR7 EC50
// pEC50 here means minus log10 of the molar concentration (mol/L)

Sample answers from the record:
1) CCCN(CCC)C(=O)C1=Cc2c(cnn2Cc2ccc(CN)cc2)N=C(N)C1: 5.25
2) CCCN(OCC)C(=O)C1=Cc2c(cnn2CCCCCNC(=O)OC(C)(C)C)N=C(N)C1: 6.10
3) CCCN(CCC)C(=O)C1=Cc2c(cnn2CCCCCNC(=O)OC(C)(C)C)N=C(N)C1: 5.53

Then this molecule:
input: Record request: pEC50 value, item CCCN(OCC)C(=O)C1=Cc2c(cnn2CCCCCN)N=C(N)C1
output: 5.49

----------
Documented EC50 across a set of molecules
- measured-on: human TLR8 (Homo sapiens)
- test-name: HEK Reporter Assay, HEK293 cells expressing human TLR8
- condition-details: HEK293 NFKB reporter cells expressing human TLR8; read-out: HEK293 hTLR8 EC50

Sample answers from the record:
1. CCCN(CCC)C(=O)C1=Cc2nn(CCCCCN)cc2N=C(N)C1: > 9 µM
2. CCCN(CCCNC(=O)CC(C)(C)C)C(=O)C1=Cc2c(cnn2CCCCCN)N=C(N)C1: > 9 µM

Then this molecule:
input: Record CCCN(CCC)C(=O)C1=Cc2nn(CCCCCNC(=O)OC(C)(C)C)cc2N=C(N)C1 : what is its EC50 with human TLR8 (Homo sapiens)?
output: > 9 µM

----------
- measured-on: human TLR8 (Homo sapiens)
- Sequence (Q9NR97 27-1041): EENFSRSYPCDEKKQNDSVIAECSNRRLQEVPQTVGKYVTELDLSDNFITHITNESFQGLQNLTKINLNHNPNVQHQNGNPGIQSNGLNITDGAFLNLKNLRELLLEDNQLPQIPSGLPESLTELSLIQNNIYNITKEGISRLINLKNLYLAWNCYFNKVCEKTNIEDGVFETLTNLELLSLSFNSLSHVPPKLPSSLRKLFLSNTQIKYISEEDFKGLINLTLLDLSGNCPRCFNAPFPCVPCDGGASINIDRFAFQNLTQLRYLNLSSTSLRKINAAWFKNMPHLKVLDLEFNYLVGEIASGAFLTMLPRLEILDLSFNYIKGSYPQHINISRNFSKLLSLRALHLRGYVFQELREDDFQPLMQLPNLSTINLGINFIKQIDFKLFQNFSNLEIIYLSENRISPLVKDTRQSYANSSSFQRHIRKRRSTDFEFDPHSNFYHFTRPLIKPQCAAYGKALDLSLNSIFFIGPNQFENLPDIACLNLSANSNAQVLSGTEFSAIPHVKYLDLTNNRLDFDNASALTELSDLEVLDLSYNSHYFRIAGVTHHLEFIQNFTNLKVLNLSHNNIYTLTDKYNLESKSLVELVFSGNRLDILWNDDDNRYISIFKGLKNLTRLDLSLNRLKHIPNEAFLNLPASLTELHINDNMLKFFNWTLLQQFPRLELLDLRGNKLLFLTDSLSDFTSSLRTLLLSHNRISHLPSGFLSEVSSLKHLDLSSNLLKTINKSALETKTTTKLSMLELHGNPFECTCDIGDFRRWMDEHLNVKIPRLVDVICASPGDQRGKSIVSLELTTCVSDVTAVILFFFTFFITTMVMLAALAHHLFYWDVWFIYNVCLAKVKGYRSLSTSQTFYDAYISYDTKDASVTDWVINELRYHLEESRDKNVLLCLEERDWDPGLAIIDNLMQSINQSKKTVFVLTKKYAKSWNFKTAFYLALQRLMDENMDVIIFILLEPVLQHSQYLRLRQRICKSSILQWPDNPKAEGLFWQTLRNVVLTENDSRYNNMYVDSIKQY
- test-name: HEK Reporter Assay, HEK293 cells expressing human TLR8
- condition-details: HEK293 NFKB reporter cells expressing human TLR8; read-out: HEK293 hTLR8 EC50
pEC50: −log10 of the molar value.
measured-parameter: pEC50

Sample answers from the record:
1. CCCN(CCCNC(=O)OC1CCC1)C(=O)C1=Cc2c(cnn2CCCCCN)N=C(N)C1 [PAZ-15]: < 5.05
2. CCCN(CCCNC(=O)CC(C)(C)C)C(=O)C1=Cc2c(cnn2CCCCCNC(=O)OC(C)(C)C)N=C(N)C1 [PAZ-8]: < 5.05

Then this compound:
input: Record request: pEC50 value, item CCCN(CCC)C(=O)C1=Cc2c(cnn2Cc2ccc(CN)cc2)N=C(N)C1 [PAZ-14]
output: < 5.05
